- target desc: Protein kinase C eta type (Homo sapiens);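 note: value is the mean inhibition, from GSK PKIS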
- study conditions: at 1 µM
Where inhibition equals or exceeds 2%, the correct label is 1 (yes); where it does not, the label is 0 (no).

Prompt: Decide: inhibition of COc1cc(Nc2nccc(-c3cnn4ncccc34)n2)cc(OC)c1 >= 2%?
Completion: 1 (yes)

Prompt: # iterate: [O-][S+]1CCN(Cc2ccc(-c3ccc4ncnc(Nc5ccc(OCc6ccccc6)c(Cl)c5)c4c3)o2)CC1
Completion: 1 (yes)

Prompt: # iterate: COC(=O)c1cncc(/C=C/c2c(C)cc(O)cc2C)c1
Completion: 1 (yes)

Prompt: # iterate: OCc1ccc(-c2nc(-c3ccccn3)c(-c3ccc4c(c3)OCO4)[nH]2)cc1
Completion: 0 (no)

Prompt: # iterate: COc1ccc(-c2nn3ncccc3c2-c2ccnc(Nc3cccc(C(F)(F)F)c3)n2)cc1
Completion: 0 (no)

Prompt: # iterate: c1ccc(Nc2ncc(-c3ccccc3)o2)cc1
Completion: 1 (yes)

Prompt: # iterate: O=S(=O)(CCOCc1ccc(-c2ccc3ncnc(Nc4ccc(OCc5cccc(F)c5)c(Cl)c4)c3c2)o1)c1ccccc1
Completion: 0 (no)

Prompt: # iterate: COC(=O)c1ccc2c(c1)C(=Cc1cc(Br)c(O)c(Br)c1)C(=O)N2
Completion: 1 (yes)

Prompt: # iterate: C[C@@H](Oc1cc(-n2cnc3ccc(OC[C@@H](O)CO)cc32)sc1C(N)=O)c1ccccc1Cl
Completion: 0 (no)

Prompt: # iterate: CN(C)c1cc2c(Nc3ccc4c(cnn4Cc4ccccc4)c3)ncnc2cn1
Completion: 0 (no)

====

- target desc: Dual specificity tyrosine-phosphorylation-regulated kinase 2 (Homo sapiens);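 note: values are mean percent inhibition of DYRK2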
- Sequence (whole entry): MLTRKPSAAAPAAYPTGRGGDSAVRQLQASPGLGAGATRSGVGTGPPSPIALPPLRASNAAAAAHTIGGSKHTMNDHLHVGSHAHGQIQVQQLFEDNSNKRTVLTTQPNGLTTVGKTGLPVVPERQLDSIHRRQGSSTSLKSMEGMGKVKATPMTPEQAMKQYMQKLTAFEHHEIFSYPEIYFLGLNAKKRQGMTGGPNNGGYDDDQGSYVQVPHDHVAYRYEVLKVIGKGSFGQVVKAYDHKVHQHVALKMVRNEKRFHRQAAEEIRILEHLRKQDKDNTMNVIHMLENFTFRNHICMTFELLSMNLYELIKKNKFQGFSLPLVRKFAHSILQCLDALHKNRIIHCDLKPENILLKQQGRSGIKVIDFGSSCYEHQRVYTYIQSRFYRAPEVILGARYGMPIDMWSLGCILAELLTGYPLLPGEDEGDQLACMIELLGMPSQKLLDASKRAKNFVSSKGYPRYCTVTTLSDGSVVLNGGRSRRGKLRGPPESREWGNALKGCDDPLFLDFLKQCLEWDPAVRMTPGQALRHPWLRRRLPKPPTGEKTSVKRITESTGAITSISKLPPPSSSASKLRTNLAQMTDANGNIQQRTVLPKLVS
- study conditions: at 0.1 µM
measured attribute: inhibition (%)
Write it as a number; the unit % goes unstated.

Prompt: Look up inhibition with Dual specificity tyrosine-phosphorylation-regulated kinase 2 (Homo sapiens) for this compound: CN(c1ccc(NC(=O)Nc2ccc(OC(F)(F)F)cc2)cc1)c1ccnc(Nc2cccc(S(N)(=O)=O)c2)n1
Completion: 2.23

Prompt: # iterate: O=C1Nc2ccccc2/C1=C/Nc1ccc2[nH]c(=O)[nH]c2c1
Completion: 4.31

Prompt: # iterate: COc1cccc(-n2ncc3c(N/N=C/c4ccc(C)cc4)ncnc32)c1
Completion: 5.76

Prompt: # iterate: CCCN1CCCC(c2ccc(Nc3nc(Nc4cc(F)ccc4C(N)=O)c4cc[nH]c4n3)c(OC)c2)C1 (centres undefined)
Completion: 36.3

Prompt: # iterate: C[C@@H](Oc1cc(-n2cnc3ccc(OCC4CCN(C)CC4)cc32)sc1C(N)=O)c1ccccc1C(F)(F)F
Completion: -2.57

Prompt: # iterate: CC(C)c1ccc(Nc2nccc(-c3cnn4ncccc34)n2)cc1
Completion: 2.73

Prompt: # iterate: COc1cc(Nc2nccc(-c3cnn4ncccc34)n2)cc(OC)c1
Completion: 5.46

Prompt: # iterate: FC(F)(F)c1ccc(-c2nn3ncccc3c2-c2ccnc(Nc3ccc4c(c3)OCCO4)n2)cc1
Completion: -0.81

Prompt: # iterate: COc1cccc(-n2ncc3c(N/N=C/c4ccc(S(C)(=O)=O)cc4)ncnc32)c1
Completion: 14.5

====

- Tested on: Receptor-type tyrosine-protein kinase FLT3 (Homo sapiens), P36888 [D835Y]
- study conditions: at 1 µM
measured attribute: inhibition (%)
Write it as a number; the unit % goes unstated.

Prompt: Which inhibition is reported for this compound? Cc1ccc(NC(=O)CC2CC2)cc1-c1ccc(C(=O)NCC2CC2)cc1
Completion: 0.64

Prompt: # iterate: N#Cc1cccc(Nc2nccc(-c3cnn4ncccc34)n2)c1
Completion: 53.4

Prompt: # iterate: [O-][S+]1CCN(Cc2ccc(-c3ccc4ncnc(Nc5ccc(OCc6ccccc6)c(Cl)c5)c4c3)o2)CC1
Completion: -1.91

Prompt: # iterate: Cc1ccc(C(=O)NC2CC2)cc1-c1ccc2[nH]ncc2c1
Completion: 3.33

Prompt: # iterate: COc1cc2ncnc(Nc3ccc(C)c(O)c3)c2cc1OC
Completion: 2.41

Prompt: # iterate: CC(C)c1ccc(Nc2nccc(-c3cnn4ncccc34)n2)cc1
Completion: 23.1

Prompt: # iterate: Cc1ccc(O)cc1Nc1ccnc2ccc(S(C)(=O)=O)cc12
Completion: -0.22

Prompt: # iterate: CN(C)CCCn1c(-c2nonc2N)nc2cnccc21
Completion: -1.23

Prompt: # iterate: CN(C)c1cc2c(Nc3ccc4c(cnn4Cc4ccccc4)c3)ncnc2cn1
Completion: 1.61

Prompt: # iterate: CN1CCN(C(=O)c2ccc(NC(=O)Nc3ccc(N(C)c4ccnc(Nc5ccc(CS(C)(=O)=O)cc5)n4)cc3)cc2)CC1
Completion: 25.1

====

Please respond with reported inhibition for every item in the list.
- target desc: Inhibitor of nuclear factor kappa-B kinase subunit epsilon (Homo sapiens) (UniProt Q14164);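 note: reported values are averaged percent inhibition figures against human IKKε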
- Sequence (whole entry): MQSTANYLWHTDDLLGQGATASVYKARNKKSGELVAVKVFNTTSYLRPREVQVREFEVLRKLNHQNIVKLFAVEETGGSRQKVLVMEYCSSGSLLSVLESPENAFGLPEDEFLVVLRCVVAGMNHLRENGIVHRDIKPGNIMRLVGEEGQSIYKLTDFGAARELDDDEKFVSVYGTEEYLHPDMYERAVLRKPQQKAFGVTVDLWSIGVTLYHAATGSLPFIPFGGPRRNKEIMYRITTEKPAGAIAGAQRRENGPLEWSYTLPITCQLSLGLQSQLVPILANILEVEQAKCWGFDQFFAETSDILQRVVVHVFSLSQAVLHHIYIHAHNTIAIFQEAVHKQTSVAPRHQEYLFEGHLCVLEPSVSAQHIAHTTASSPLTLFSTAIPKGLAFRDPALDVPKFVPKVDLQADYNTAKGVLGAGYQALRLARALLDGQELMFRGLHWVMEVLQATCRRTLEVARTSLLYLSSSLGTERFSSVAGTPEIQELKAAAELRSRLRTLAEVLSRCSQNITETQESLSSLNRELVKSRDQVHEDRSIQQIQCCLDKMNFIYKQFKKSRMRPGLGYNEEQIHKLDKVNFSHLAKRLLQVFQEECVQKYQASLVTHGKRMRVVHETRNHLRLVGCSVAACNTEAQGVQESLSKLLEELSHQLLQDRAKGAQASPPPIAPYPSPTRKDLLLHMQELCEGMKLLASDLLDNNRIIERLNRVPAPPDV
- study conditions: at 1 µM
Write it as a number; the unit % goes unstated.

Prompt: Which inhibition is reported for this compound? CN(C)c1cc2c(Nc3ccc4c(cnn4Cc4ccccc4)c3)ncnc2cn1
Completion: 3.38

Prompt: # iterate: N#Cc1cccc(Nc2nccc(-c3cnn4ncccc34)n2)c1
Completion: 27.9

Prompt: # iterate: COc1cc2ncnc(Nc3ccc4c(cnn4Cc4ccccc4)c3)c2cc1OC
Completion: 4.31

Prompt: # iterate: NS(=O)(=O)c1ccc(-c2cc3ccncc3cc2OCc2ccccc2)cc1
Completion: 2.21

Prompt: # iterate: NS(=O)(=O)c1cccc(-c2cc3ccncc3cc2OCc2ccccc2)c1
Completion: 5.04

Prompt: # iterate: N#Cc1c(NC(=O)c2ccccc2F)sc2c1CCCC2
Completion: -0.39

Prompt: # iterate: NC(=O)c1sc(-n2cnc3ccccc32)cc1OCc1ccccc1Br
Completion: 6.21

Prompt: # iterate: NS(=O)(=O)c1ccc(NC=C2C(=O)Nc3ccc4ncsc4c32)cc1
Completion: 65.4

Prompt: # iterate: Cc1ccc2c(c1)/C(=N/Nc1ccc(S(N)(=O)=O)cc1)C(=O)N2
Completion: -2.89

Prompt: # iterate: [O-][S+]1CCN(Cc2ccc(-c3ccc4ncnc(Nc5ccc(OCc6ccccc6)c(Cl)c5)c4c3)o2)CC1
Completion: 1.71

Prompt: # iterate: CCn1c(-c2nonc2N)nc2ccc(F)cc21
Completion: 11

Prompt: # iterate: CCOc1nccc2c1nc(-c1nonc1N)n2CC
Completion: 6.4

Prompt: # iterate: COc1cc2ncn(-c3cc(OCc4ccccc4S(C)(=O)=O)c(C#N)s3)c2cc1OC
Completion: 115

Prompt: # iterate: O=C1Nc2ccc(-c3cccnc3)cc2C1=Cc1cc(Br)c(O)c(Br)c1
Completion: 92.1

Prompt: # iterate: COc1cccc(-n2nc(C)c3c(N/N=C(\C)c4ccncc4)ncnc32)c1
Completion: 1.16

Prompt: # iterate: CS(=O)(=O)Nc1cccc(-c2ccc3c(NC(=O)C4CC4)n[nH]c3c2)c1
Completion: 2.59

Prompt: # iterate: NS(=O)(=O)c1ccc(Nc2cc(-c3cccc(O)c3)n[nH]2)cc1
Completion: 6.34

Prompt: # iterate: CC(C)c1ccc2c(c1)NC(=O)/C2=N/Nc1ccc(S(N)(=O)=O)cc1
Completion: -1.41

Prompt: # iterate: Nc1ccc(C#Cc2cncnc2Nc2ccc(OCc3cccc(F)c3)c(Cl)c2)cc1
Completion: 4.07

Prompt: # iterate: C[C@@H](Oc1cc(-n2cnc3ccc(OCC4CCN(C)CC4)cc32)sc1C(N)=O)c1ccccc1C(F)(F)F
Completion: -1.35

Prompt: # iterate: COc1ccc2ncnc(Nc3ccc(OCc4ccccc4)cc3)c2c1
Completion: 1.06

Prompt: # iterate: COc1cccc(-n2ncc3c(N/N=C/c4ccc(S(C)(=O)=O)cc4)ncnc32)c1
Completion: 8.64

Prompt: # iterate: COC(=O)c1cncc(/C=C/c2c(C)cc(O)cc2C)c1
Completion: 8.63
